Hello, the source for this data is ChEMBL document CHEMBL2321704, in case you need it.

Assay: Clearance in human liver microsomes
Assay type: ADME, Microsome
Assay metric: CLhep predicted (mL/min/kg)

Past entries and their recorded results:
INSERT INTO assay_data (smiles_structure, units_symbol, test_result) VALUES
  ('NC(=O)c1ccc2c(c1)OCCc1cc(-c3ncnn3C3CCC3)sc1-2', 'mL/min/kg', 19),
  ('CC(C)Cn1ncnc1-c1cc2c(s1)-c1ccc(C(N)=O)cc1OCC2', 'mL/min/kg', 19),
  ('NC(=O)c1ccc2c(c1)OCCc1cc(-c3ncnn3-c3ccc(F)cc3F)sc1-2', 'mL/min/kg', 7);

1. NC(=O)c1ccc2c(c1)OCCc1cc(-c3ncnn3CC(F)(F)F)sc1-2
2. CC(C)(O)Cn1ncnc1-c1cc2c(s1)-c1ccc(C(N)=O)cc1OCC2
For the pair 1 and 2 , which entry has the numerically smaller recorded CLhep predicted? Label of pick, please.
1
(1: 7 mL/min/kg, 2: 11 mL/min/kg)

----------
Test: Clearance in human liver microsomes
Type: ADME, Microsome
Assay metric: CLhep predicted (mL/min/kg)

INSERT INTO measurements (smiles_structure, assay_metric, units_symbol, test_result) VALUES
  ('CC(C)n1ncnc1-c1cc2c(s1)-c1ccc(C(N)=O)cc1OCC2', 'CLhep predicted', 'mL/min/kg', 10),
  ('CN(C(=O)c1cc2c(s1)-c1ccc(C(N)=O)cc1OCC2)c1ccccc1Cl', 'CLhep predicted', 'mL/min/kg', 18),
  ('NC(=O)c1ccc2c(c1)OCCc1cc(-c3ncnn3CCO)sc1-2', 'CLhep predicted', 'mL/min/kg', 10),
  ('CN(C)CCn1ncnc1-c1cc2c(s1)-c1ccc(C(N)=O)cc1OCC2', 'CLhep predicted', 'mL/min/kg', 14);

----------
Target: Phosphatidylinositol 4,5-bisphosphate 3-kinase catalytic subunit alpha isoform (Homo sapiens)
Sequence (P42336 whole entry, canonical isoform): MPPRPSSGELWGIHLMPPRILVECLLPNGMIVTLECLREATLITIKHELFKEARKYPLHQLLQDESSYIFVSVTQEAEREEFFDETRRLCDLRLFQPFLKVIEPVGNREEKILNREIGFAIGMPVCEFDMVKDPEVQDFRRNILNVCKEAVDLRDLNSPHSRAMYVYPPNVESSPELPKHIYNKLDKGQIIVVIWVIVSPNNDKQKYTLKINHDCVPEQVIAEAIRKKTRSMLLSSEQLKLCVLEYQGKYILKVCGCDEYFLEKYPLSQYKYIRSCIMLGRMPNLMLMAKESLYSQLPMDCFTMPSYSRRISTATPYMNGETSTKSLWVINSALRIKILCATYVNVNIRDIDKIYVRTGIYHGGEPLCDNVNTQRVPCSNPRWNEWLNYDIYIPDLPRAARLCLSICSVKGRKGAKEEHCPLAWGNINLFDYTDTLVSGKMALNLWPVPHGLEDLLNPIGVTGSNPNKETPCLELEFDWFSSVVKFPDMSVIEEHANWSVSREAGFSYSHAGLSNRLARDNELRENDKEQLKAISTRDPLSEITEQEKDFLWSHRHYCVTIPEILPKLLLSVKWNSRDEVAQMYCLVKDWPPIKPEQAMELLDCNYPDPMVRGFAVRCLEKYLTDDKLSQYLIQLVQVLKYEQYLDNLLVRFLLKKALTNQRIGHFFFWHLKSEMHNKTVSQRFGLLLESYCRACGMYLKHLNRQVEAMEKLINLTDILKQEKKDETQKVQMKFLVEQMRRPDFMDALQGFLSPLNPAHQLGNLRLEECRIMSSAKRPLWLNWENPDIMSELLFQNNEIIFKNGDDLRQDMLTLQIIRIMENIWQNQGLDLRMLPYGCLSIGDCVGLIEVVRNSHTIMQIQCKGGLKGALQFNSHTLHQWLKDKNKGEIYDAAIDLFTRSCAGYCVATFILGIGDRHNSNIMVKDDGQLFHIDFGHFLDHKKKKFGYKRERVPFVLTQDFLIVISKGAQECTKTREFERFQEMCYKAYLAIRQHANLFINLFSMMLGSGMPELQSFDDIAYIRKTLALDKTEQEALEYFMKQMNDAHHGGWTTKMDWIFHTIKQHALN
pIC50: −log10 of the molar value.
Assay metric: pIC50

Example entries begin here.
INSERT INTO measurements (smiles_structure, assay_metric, test_result) VALUES
  ('NC(=O)c1ccc2c(c1)OCCc1cc(-c3ncnn3CC(F)(F)F)sc1-2', 'pIC50', 6.31),
  ('Clc1ccccc1-c1ocnc1-c1cc2c(s1)-c1ncccc1OCC2', 'pIC50', 6.60),
  ('Clc1ccccc1-n1cnnc1-c1cc2c(s1)-c1ccccc1OCC2', 'pIC50', 7.13),
  ('NC(=O)c1ccc2c(c1)OCCc1cc(-c3ncnn3-c3ccc(F)cc3F)sc1-2', 'pIC50', 7.77),
  ('NC(=O)c1ccc2c(c1)OCCc1cc(-c3nnnn3-c3ccccc3Cl)sc1-2', 'pIC50', 7.38),
  ('NC(=O)c1ccc2c(c1)OCCc1cc(-c3nncn3-c3ccccc3Cl)sc1-2', 'pIC50', 7.22),
  ('NC(=O)c1ccc2c(c1)OCCc1cc(-c3n[nH]cc3-c3ccccc3Cl)sc1-2', 'pIC50', 7.55);

P. Nc1nc(-c2cc3c(s2)-c2ccccc2OCC3)c(-c2ccccc2Cl)s1
Q. CN(C(=O)c1cc2c(s1)-c1ccc(C(N)=O)cc1OCC2)c1ccccc1Cl
Returns: the label, P or Q , whose recorded pIC50 is the lower number. To answer, give the label that identifies your chosen option.
Q
(Q: 7.00, P: 7.64)

----------
Assay: Clearance in rat liver microsomes
Assay type: ADME, Microsome
Assay metric: CLhep predicted (mL/min/kg)

A selection of reference data follows.
INSERT INTO assay_data (smiles_structure, test_result) VALUES
  ('CN(C(=O)c1cc2c(s1)-c1ccc(C(N)=O)cc1OCC2)c1ccccc1Cl', 43),
  ('CN(C)CCn1ncnc1-c1cc2c(s1)-c1ccc(C(N)=O)cc1OCC2', 38),
  ('CC(C)Cn1ncnc1-c1cc2c(s1)-c1ccc(C(N)=O)cc1OCC2', 49);

1. NC(=O)c1ccc2c(c1)OCCc1cc(-c3ncnn3-c3ccc(F)cc3F)sc1-2
2. CC(C)(O)Cn1ncnc1-c1cc2c(s1)-c1ccc(C(N)=O)cc1OCC2
Just curious, which one has the larger CLhep predicted reading, 1 or 2 ? Please indicate the selected item by its label.
1
(1: 24 mL/min/kg, 2: 15 mL/min/kg)

A. CC(C)n1ncnc1-c1cc2c(s1)-c1ccc(C(N)=O)cc1OCC2
B. NC(=O)c1ccc2c(c1)OCCc1cc(-c3ncnn3CC(F)(F)F)sc1-2
Among A and B , whose measured CLhep predicted is the smaller figure? Please reply using the label of the selected record.
B

1. NC(=O)c1ccc2c(c1)OCCc1cc(-c3ncnn3CCO)sc1-2
2. NC(=O)c1ccc2c(c1)OCCc1cc(-c3ncnn3C3CCC3)sc1-2
Which of the two gives a bigger number for CLhep predicted: 1 or 2 ? Indicate which entry you chose by stating its label.
2
(2: 44 mL/min/kg, 1: 25 mL/min/kg)
